Entries annotated with measured IC50
# Tested on: influenza A virus (A/PR/8/34)
# protocol details: microbe, parasite or virus in culture
# Format: cell-based
# condition set: Influenza A virus, PR/8, MDCK; read-out: IC50 (mean all)
Structures can show the parent of a compound that is named as a salt.

compound	IC50
O=C(Oc1ccccc1)N1CCC[C@H](CNc2nc(-c3c[nH]c4ncc(Cl)cc34)ncc2F)C1	5 to 20 µM
O=C(Oc1ccccc1Cl)N1CCC[C@H](CNc2nc(-c3c[nH]c4ncc(Cl)cc34)ncc2F)C1	< 5 µM
COc1ccccc1OC(=O)N1CCC[C@H](CNc2nc(-c3c[nH]c4ncc(Cl)cc34)ncc2F)C1	< 5 µM
CCNC(=O)OC1CCCC(Nc2nc(-c3c[nH]c4ncc(Cl)cc34)ncc2F)C1 (stereo not shown)	< 5 µM
CC#CCOC(=O)N1CCC[C@H](CNc2nc(-c3c[nH]c4ncc(Cl)cc34)ncc2F)C1	< 5 µM
COC(=O)/C=C/CN1CCC[C@@H](CNc2nc(-c3c[nH]c4ncc(Cl)cc34)ncc2F)C1	> 20 µM
O=C(N[C@@H]1CCC[C@H](Nc2nc(-c3c[nH]c4ncc(Cl)cc34)ncc2F)C1)C1CCNCC1 [Compound 639, bishydrochloride]	> 10 µM
COC(=O)c1ccc(OC(=O)N2CCC[C@H](CNc3nc(-c4c[nH]c5ncc(Cl)cc45)ncc3F)C2)cc1	> 20 µM
O=C(Oc1ccc(F)cc1)N1CCC[C@H](CNc2nc(-c3c[nH]c4ncc(Cl)cc34)ncc2F)C1	5 to 20 µM
CCC(=O)N1CCCC(CNc2nc(-c3c[nH]c4ncccc34)ncc2F)C1 (stereo not shown)	5 to 20 µM
CC(C)=CC(=O)N1CCC[C@H](CNc2nc(-c3c[nH]c4ncc(Cl)cc34)ncc2F)C1	< 5 µM
CC=CC(=O)N1CCC[C@@H](CNc2nc(-c3c[nH]c4ncc(Cl)cc34)ncc2F)C1	< 5 µM
CC#CCOC(=O)N1CCC[C@@H](CNc2nc(-c3c[nH]c4ncc(Cl)cc34)ncc2F)C1	5 to 20 µM
Cc1ccc(OC(=O)N2CCC[C@H](CNc3nc(-c4c[nH]c5ncc(Cl)cc45)ncc3F)C2)cc1	5 to 20 µM
O=C(Oc1cccc(C(F)(F)F)c1)N1CCC[C@H](CNc2nc(-c3c[nH]c4ncc(Cl)cc34)ncc2F)C1	5 to 20 µM
C=C(C)OC(=O)N1CCC[C@H](CNc2nc(-c3c[nH]c4ncc(Cl)cc34)ncc2F)C1	< 5 µM

----------
# Tested on: A/PR/8/34 influenza virus
# protocol details: microbe, parasite or virus in culture
# Assay type: cell-based
# condition set: Influenza A virus, PR/8, MDCK

compound string	EC50
COP(=O)(CN1CCC[C@H](Nc2nc(-c3c[nH]c4ncc(Cl)cc34)ncc2F)C1)OC	< 5 µM

----------
# System: A/PR/8/34 influenza virus
# protocol details: microbe, parasite or virus in culture
# Format: cell-based
# condition set: Influenza A virus, PR/8, MDCK, bDNA assay, A/PR/8/34 influenza virus replication in MDCK cells; class symbols; read-out: EC50 (mean all)
pEC50: −log10 of the molar value. Counter-ions that a name gives are not always drawn.

molecule	pEC50
O=C(N[C@@H]1CCC[C@H](Nc2nc(-c3c[nH]c4ncc(Cl)cc34)ncc2F)C1)C1CCCO1 (some centres unmarked) [Compound 638, hydrochloride]	> 5.30
CC1(C(=O)N[C@@H]2CCC[C@H](Nc3nc(-c4c[nH]c5ncc(Cl)cc45)ncc3F)C2)COC1 [Compound 635, hydrochloride]	> 5.30
CCOC(=O)C1=CC(Nc2nc(-c3c[nH]c4ncc(Cl)cc34)ncc2F)[C@@H](NC(C)=O)[C@H](OC(CC)CC)C1 (some centres unmarked)	< 5.48
O[C@@H]1[C@H](O)CCC[C@@H]1Nc1nc(-c2c[nH]c3ncc(Cl)cc23)ncc1F	> 5.30
CNC(=O)C(C)(C)N1CCC[C@H](Nc2nc(-c3c[nH]c4ncc(Cl)cc34)ncc2F)C1	> 5.30
O=C(N[C@@H]1CCC[C@H](Nc2nc(-c3c[nH]c4ncc(Cl)cc34)ncc2F)C1)C1CCCOC1 (some centres unmarked) [Compound 633, hydrochloride]	> 5.30
O[C@H]1[C@H](O)CCC[C@@H]1Nc1nc(-c2c[nH]c3ncc(Cl)cc23)ncc1F	> 5.30
COCCNC(=O)C(C)(C)N1CCC[C@H](Nc2nc(-c3c[nH]c4ncc(Cl)cc34)ncc2F)C1	> 5.30
O=C(N[C@@H]1CCC[C@H](Nc2nc(-c3c[nH]c4ncc(Cl)cc34)ncc2F)C1)N1CCOCC1	> 5.30
O=C(CCO)N[C@@H]1CCC[C@H](Nc2nc(-c3c[nH]c4ncc(Cl)cc34)ncc2F)C1 [Compound 634, hydrochloride]	> 5.30
Fc1cnc(-c2c[nH]c3ncc(Cl)cc23)nc1N[C@H]1CCCN(CC(F)(F)F)C1	> 5.30
CC(O)C(=O)N[C@@H]1CCC[C@H](Nc2nc(-c3c[nH]c4ncc(Cl)cc34)ncc2F)C1 (some centres unmarked) [Compound 642, hydrochloride]	> 5.30
CCC(CC)O[C@@H]1CC(C(=O)O)=CC(Nc2nc(-c3c[nH]c4ncc(Cl)cc34)ncc2F)[C@H]1NC(C)=O (some centres unmarked)	< 5.48
CNC(=O)C(C)N1CCCC(Nc2nc(-c3c[nH]c4ncc(Cl)cc34)ncc2F)C1 (centres unmarked)	> 5.30
CN(C)C(=O)C(C)(C)N1CCC[C@H](Nc2nc(-c3c[nH]c4ncc(Cl)cc34)ncc2F)C1	> 5.30
O=C(N[C@@H]1CCC[C@H](Nc2nc(-c3c[nH]c4ncc(Cl)cc34)ncc2F)C1)C1CNCCO1 (some centres unmarked) [Compound 637, bishydrochloride]	> 5.30
O[C@H]1[C@H](O)CCC[C@H]1Nc1nc(-c2c[nH]c3ncc(Cl)cc23)ncc1F	< 5.48
COCCC(=O)N[C@@H]1CCC[C@H](Nc2nc(-c3c[nH]c4ncc(Cl)cc34)ncc2F)C1	> 5.30
O[C@H]1[C@@H](Nc2nc(-c3c[nH]c4ncc(Cl)cc34)ncc2F)CCC[C@@H]1O	> 5.30
O=C(N[C@@H]1CCC[C@H](Nc2nc(-c3c[nH]c4ncc(Cl)cc34)ncc2F)C1)O[C@H]1CCOC1	> 5.30
CC(C)(C(N)=O)N1CCC[C@H](Nc2nc(-c3c[nH]c4ncc(Cl)cc34)ncc2F)C1	> 5.30
COCC(O)CN[C@@H]1CCC[C@H](Nc2nc(-c3c[nH]c4ncc(Cl)cc34)ncc2F)C1 (some centres unmarked)	< 5.48
O=C(N[C@@H]1CCC[C@H](Nc2nc(-c3c[nH]c4ncc(Cl)cc34)ncc2F)C1)C1CCOC1 (some centres unmarked) [Compound 652, hydrochloride]	> 5.30
CC(C)(CO)C(=O)N[C@@H]1CCC[C@H](Nc2nc(-c3c[nH]c4ncc(Cl)cc34)ncc2F)C1 [Compound 650, hydrochloride]	> 5.30
N#CCN1CCC[C@H](Nc2nc(-c3c[nH]c4ncc(Cl)cc34)ncc2F)C1	> 5.30
O=C(N[C@@H]1CCC[C@H](Nc2nc(-c3c[nH]c4ncc(Cl)cc34)ncc2F)C1)C1CCOCC1 [Compound 636, hydrochloride]	> 5.30
CC(O)CC(=O)N[C@@H]1CCC[C@H](Nc2nc(-c3c[nH]c4ncc(Cl)cc34)ncc2F)C1 (some centres unmarked) [Compound 640, hydrochloride]	> 5.30
Cc1cnc(-c2c[nH]c3ncc(Cl)cc23)nc1N[C@H]1CCCN(CC(N)=O)C1	> 5.30
OCC1(O)CCCC(Nc2nc(-c3c[nH]c4ncc(Cl)cc34)ncc2F)C1 (centres unmarked)	> 5.30
